system: SK-MEL-5 melanoma; assay: NCI tumour cell line growth inhibition, 48 h
Give log10 of TGI for every item shown.
Field: value | Transform: log10 | Quantity: TGI | Unit: µM

I would be grateful if you could share the reported log10 of TGI for CC(/C=C/c1ccccc1)=N\NC(=S)N/N=C(C)/C=C/c1ccccc1 .
1.63

Tell me the measured log10 of TGI of N#Cc1c(-c2ccccc2)nc(SCC(O)CN2CCOCC2)nc1N1CCOCC1 (stereo not given) , please.
1.68

Please report the recorded log10 of TGI for Cc1cc2c3c(nc4ccccc42)C(=O)c2cccnc2-c3n1 .
-0.45

Quick check: log10 of TGI of C=C1C(=O)O[C@H]2C(=O)[C@H](C)CCC/C(C)=C/CC[C@@]3(C)O[C@@H]3C[C@@H]12 ?
1.32

I am curious: what log10 of TGI value has been reported for Cc1cc2c(C(C)C)c(O)c(O)c(/C=N/O)c2c(O)c1-c1c(C)cc2c(C(C)C)c(O)c(O)c(/C=N/O)c2c1O ?
0.58

Please look up its log10 of TGI: Cc1c(Br)c(Br)c2c3c1nc(N1CCNCC1)n3CCC2
0.53

May I ask what log10 of TGI has been recorded for O=C1NC(=Nc2ccccc2Cl)N/C1=C\c1c(Cl)cccc1Cl ?
1.67

Fill blank: measured log10 of TGI of the compound CC(=O)NC(CCc1ccc(Cl)c(Cl)c1)c1cccc(O)c(=O)c1 (stereo not given) is ____.
0.06

---

test system: HOP-18 NSCLC; experiment: NCI tumour cell line growth inhibition, 48 h
For each record, write down the corresponding TGI.
API: value field is a number in µM; no unit string.

Please look up its TGI: C=C(CN(C)C)C(=O)c1ccccc1
14.8

Entry O=C1NC(=S)NC(=O)C1=Cc1ccc([N+](=O)[O-])o1 has what TGI?
35.3

What value of measured TGI is listed for CC(C)(C)c1cc(Cc2ccc(S(C)(=O)=O)cc2)c(O)c(C(C)(C)C)c1 ?
37.2

Field request: TGI | item: Oc1ccc(I)c2cccnc12
47.7

---

test system: SNB-75 CNS; assay: NCI tumour cell line growth inhibition, 48 h
readout: TGI

Data request, read-out TGI, for O=S(=O)(Cc1ccccc1)c1nnc(S(=O)(=O)c2ccc(Cl)cc2)s1
32.5 µM

Bench note: what TGI did O=S1(=O)C[C@H](NCc2ccccc2)[C@H](NCc2ccccc2)C1 show?
> 100 µM

What value of measured TGI is listed for Nc1ncc(-c2ccc3ncnc(N4CCc5cc(F)c(Cl)cc54)c3c2)cc1C=O ?
2.77 µM

I would be grateful if you could share the reported TGI for O=C(Oc1ccc(C(c2c(O)c3ccccc3oc2=O)c2c(O)c3ccccc3oc2=O)cc1)c1ccc(C(=O)c2ccccc2)cc1 .
32.4 µM

Please report the recorded TGI for CN1C(=O)C(O)CC1c1ccccc1F (stereo not drawn) .
> 100 µM

Find the recorded TGI belonging to O=C1CCC2(c3ccccc3)OCC([C@@H](O)c3ccccc3)N12 (stereo partly drawn) and report it.
> 100 µM

What value of measured TGI is listed for COc1ccc(CCn2ccc(C)n2)c(OC)c1 ?
> 100 µM

Name the reported TGI value associated with the molecule C=C(CN(C)C)C(=O)c1ccccc1
39.7 µM

What does the data say about its TGI? Entry: CC1(C)CCC2(C(=O)O)C(O)CC3(C)C(=CCC4C5(C)CCC(OC6OCC(O)C(O)C6OC6OCC(O)C(O)C6OC6OCC(O)C(OC7OC(CO)C(O)C(O)C7O)C6O)C(C)(C)C5CCC43C)C2C1 (stereo not drawn)
40.1 µM

Which TGI value is on record for C=C(C)C1Cc2c(cc3c(c2O)c(=O)c2ccccc2n3C)O1 (stereo not drawn) ?
17 µM

Would you kindly share the measured TGI for CC(=O)NNc1nc(C)c(C(=O)/C=C/c2ccc(N(C)C)cc2)s1 ?
> 100 µM

Entry CN1CCC(=C(c2ccc(Cl)cc2)c2ccccn2)CC1 has what TGI?
> 100 µM

Return reported TGI; argument: COC1(OC)CCC2(C)OC(c3ccccc3)C1O2 (stereo not drawn)
> 100 µM

Item O=[N+]([O-])c1ccccc1S(=O)(=O)c1cccc2c1NCCC2 has what recorded TGI?
> 100 µM

Look at this molecule and give its reported TGI. O=c1nc(N2CCCCC2)sc2[nH]c3ccccc3c12
> 100 µM

Fill in the blank: the reported TGI of COc1cccc(N2C(=N)/C(=C3\Nc4ccccc4S3)CC2=O)c1 is ____.
57.3 µM

So what's the measured TGI for this one? N#C/C(=C\c1ccc(O)c(O)c1)C(=O)NCc1cccc(C(F)(F)F)c1
59.2 µM

I am curious: what TGI value has been reported for [pH]1p2[pH]p3p1p3[pH]2.c1cc[c]([Ge]([c]2ccccc2)[c]2ccccc2)cc1.c1cc[c]([Ge]([c]2ccccc2)[c]2ccccc2)cc1.c1cc[c]([Ge]([c]2ccccc2)[c]2ccccc2)cc1 ?
32.4 µM

Entry COc1cc2c(SCCN(C)C)nc3ccccc3c2c2ccccc12 has what TGI?
8.32 µM

Please look up its TGI: C=C1C2CCCC1C1(S(C)(=O)=O)CCCCC21O (stereo not drawn)
> 100 µM

# TGI lookup, item Cn1c(=O)oc2cc(C(O)CN3CCN(Cc4ccc5c(c4)OCO5)CC3)ccc21 (stereo not drawn)
> 100 µM

Tell me the measured TGI of CCCN(CCCC(NC(C)=O)C(=O)NCc1ccccc1)C(=O)N(C)N=O (stereo not drawn) , please.
> 100 µM

Field request: TGI | item: Cc1c(C(=O)/C=C/c2ccc([N+](=O)[O-])cc2)[n+](=O)c2ccccc2n1[O-]
> 100 µM

What does the record list as TGI for CC12CCC(=O)N1[C@@H](c1ccccc1)[C@@H](c1ccccc1)O2 (stereo partly drawn) ?
> 100 µM

Which TGI is reported for this molecule? OC(Cc1cnnc2ccccc12)C(Cl)(Cl)Cl (stereo not drawn)
> 10 µM

GET /values?readout=TGI&item= Cc1ccc2c(-c3ccnc(Nc4cccc(C(F)(F)F)c4)n3)c(-c3ccccc3)nn2n1
> 25 µM

For O=C(O)c1cc(-c2ccc(-c3ccccc3)cc2)nc2cc3ccccc3cc12 , what is its reported TGI?
69.9 µM

Quick one: TGI for O=C(CC(O)(C(F)(F)F)C(F)(F)F)c1cccs1 ?
> 10 µM

Entry CNc1ccc(C)cc1S(=O)(=O)c1ccccc1[N+](=O)[O-] has what TGI?
> 100 µM

Which TGI reading was recorded for the molecule c1ccc(C2(c3cc4ccccc4[nH]3)OCCO2)nc1 ?
> 100 µM

Looking for the measured TGI of COc1c(CC(C)=O)c2ccccc2n1C(C)=O , can you help?
> 100 µM

Recorded TGI for O=C(O)CCC1C(=O)C2CCN1CC2 (stereo not drawn) , please?
> 100 µM

What value of TGI has been recorded for this entry: CC1(C)COC(c2cccc(C(O)c3ccc(Cl)cc3)c2)=N1 (stereo not drawn)
60.5 µM

Given the entry CC(C)(C)c1cc(Cc2ccc(S(C)(=O)=O)cc2)c(O)c(C(C)(C)C)c1 , report its measured TGI.
28 µM

Please report the recorded TGI for C/C(=N\O)C1CC(CC(=O)O)C1(C)C (stereo not drawn) .
> 100 µM

Recorded TGI of O=S(=O)(N=[Se](=O)(c1ccccc1)c1ccccc1)c1ccccc1 , please.
> 100 µM

Fill in the blank: the reported TGI of CC1=CP(=O)(OC(C)C)C=C(C)C1=C(Cl)Cl (stereo not drawn) is ____.
> 100 µM

So what's the measured TGI for this one? O=C1NC(c2cccc3ccccc23)Nc2ccc(Cl)cc21 (stereo not drawn)
0.000902 µM

For O=C(NNC1=NS(=O)(=O)c2ccccc2N1c1ccccc1)c1cnccn1 , what is its reported TGI?
> 100 µM

Item under review: [CH3][Ge]([CH3])([CH2]CC#N)[S]c1ccccc1 . Reported TGI?
74 µM

Endpoint output: TGI of Cc1ccc(/C=C(/C#N)n2nnc3cccc(F)c32)cc1 . Value?
0.623 µM

Consider the molecule O=C1CC(=O)NC(=NN2C(=O)CSC2c2ccc(Cl)cc2)N1 (stereo not drawn) and give its measured TGI.
> 100 µM

If you can, please state the reported TGI value of CCNCCS(=O)(=O)NC[C@@]1(c2ccccc2)SC(NC(=O)C(C)(C)C)=NN1C(=O)C(C)(C)C .
> 73.8 µM

---

system: 786-0 renal; assay: NCI tumour cell line growth inhibition, 48 h
readout: TGI (µM)
Answer with a number only, understood to be in µM.

Quick check: TGI of CC(O)C1(O)C(O)CC(OC2c3cc4c(c(O)c3[C@@H]3C[C@@]2(C)OC32C=c3cc[nH]c3=N2)C(=O)c2cccc(O)c2C4=O)OC1C (stereo partly drawn) ?
4.98

Can you look up the measured TGI of COC1=CC(=O)C2=C(C1=O)[C@H]1CC[C@]3(C)C(=O)CC[C@H]3[C@@H]1CC2 for me?
53.2

Would you mind telling me what TGI value was observed for Cc1cc(NS(=O)(=O)c2ccc(-c3cnc(C4CC4)o3)cc2)ccc1Cl ?
17.8

Which TGI is listed for CC[C@@]1(O)C(=O)OCc2c1cc1n(c2=O)Cc2cc3cc(O)ccc3nc2-1 ?
0.9
